// reported Multi-Tox Assay Max Activity (%) for each item listed
Target: UniProt:O14791
Sequence (O14791 1-398 S342G/I384M): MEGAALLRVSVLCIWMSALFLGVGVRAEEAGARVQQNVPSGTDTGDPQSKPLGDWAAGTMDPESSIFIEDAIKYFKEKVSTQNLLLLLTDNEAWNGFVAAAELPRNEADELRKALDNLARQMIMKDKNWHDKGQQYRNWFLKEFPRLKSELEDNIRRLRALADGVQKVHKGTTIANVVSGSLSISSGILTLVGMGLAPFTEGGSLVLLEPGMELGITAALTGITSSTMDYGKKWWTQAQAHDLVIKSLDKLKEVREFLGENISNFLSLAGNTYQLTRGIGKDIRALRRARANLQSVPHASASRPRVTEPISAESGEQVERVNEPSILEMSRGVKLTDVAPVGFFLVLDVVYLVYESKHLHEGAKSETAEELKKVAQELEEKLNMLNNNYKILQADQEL
Test: Multi-Tox Assay (MultiTox-Fluor Multiplex Cytotoxicity Assay in tet-inducible APOL1 T-REx-HEK293 cells; Table 46 does not say which APOL1 variant G0/G1/G2)
Type: cell-based
Settings: APOL1 variant not given
endpoint.name: Multi-Tox Assay Max Activity (%)

[
  {
    "molecule": "COCCOCCOc1ccc([C@@H]2C[C@]3(C[C@H](C)N2)OCCc2cc(Cl)sc23)cc1 (racemic) [Compound 36]",
    "test.result": 100.0
  },
  {
    "molecule": "C[C@H]1C[C@@]2(C[C@@H](c3cn(C)nn3)N1)OCC(O)(C(F)F)c1cc(Cl)sc12 (single isomer, unassigned) [Compound 185]",
    "test.result": 99.5
  },
  {
    "molecule": "C[C@H]1C[C@@]2(C[C@@H](c3cccc(-c4cn[nH]c4)c3)N1)OCCc1cc(Cl)sc12 (racemic) [Compound 148]",
    "test.result": 97.0
  },
  {
    "molecule": "C[C@H]1C[C@@]2(C[C@@H](c3ccc4c(c3)NC(=O)CO4)N1)OCCc1cc(Cl)sc12 (racemic) [Compound 54]",
    "test.result": 100.0
  },
  {
    "molecule": "Cc1cc(C)nc(CCn2cc([C@@H]3C[C@]4(C[C@H](C)N3)OC[C@@H](O)c3cc(Cl)sc34)nn2)c1 [Compound 235]",
    "test.result": 100.0
  },
  {
    "molecule": "COc1ccccc1-c1ncc([C@@H]2C[C@]3(C[C@H](C)N2)OCCc2cc(Cl)sc23)cn1 (racemic) [Compound 105]",
    "test.result": 99.3
  },
  {
    "molecule": "CC(CO)CCn1cc([C@@H]2C[C@]3(C[C@H](C)N2)OC[C@@H](O)c2cc(Cl)sc23)nn1 (some centres unmarked) [Compound 264]",
    "test.result": 100.0
  },
  {
    "molecule": "C[C@H]1C[C@@]2(C[C@@H](c3cn(CC(O)c4ccccc4)nn3)N1)OCC(F)(F)c1cc(Cl)sc12 (some centres unmarked) [Compound 322]",
    "test.result": 97.0
  },
  {
    "molecule": "Cc1nccn1CCCn1cc([C@@H]2C[C@]3(C[C@H](C)N2)OCC(F)(F)c2cc(Cl)sc23)nn1 [Compound 341]",
    "test.result": 98.0
  },
  {
    "molecule": "COc1ccc([C@@H]2C[C@]3(C[C@H](C)N2)OCCc2cc(Cl)sc23)cc1O (racemic) [Compound 99]",
    "test.result": 99.0
  },
  {
    "molecule": "C[C@H]1CC2(C[C@@H](c3cn(C)nn3)N1)OCC(C)(C)c1sc(C(F)(F)F)cc12 (stereo in doubt) [Compound 16]",
    "test.result": 100.0
  },
  {
    "molecule": "C[C@H]1C[C@@]2(C[C@@H](c3cn(CC(=O)N4CCCCC4)nn3)N1)OCC(F)(F)c1cc(Cl)sc12 [Compound 356]",
    "test.result": 99.0
  },
  {
    "molecule": "COc1ccc(Cn2cc([C@@H]3C[C@]4(C[C@H](C)N3)OC[C@@H](O)c3cc(Cl)sc34)nn2)cc1 [Compound 295]",
    "test.result": 99.0
  },
  {
    "molecule": "Cc1cc([C@@H]2C[C@]3(C[C@H](C)N2)OCCc2cc(Cl)sc23)nc(N(C)C)n1 (racemic) [Compound 138]",
    "test.result": 98.0
  }
]
